- Test system: PPARg:RXRa (NR concentration 180 nM, RXRa partner concentration 90 nM)
- experimental_details: PBM binding z-score (relative to random genomic background probes); higher = stronger binding; sequences stand for … in GC…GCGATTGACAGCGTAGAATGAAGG
quantity_measured: PBM binding z-score
# output: bare number, no unit

Sample records with PBM binding z-score:
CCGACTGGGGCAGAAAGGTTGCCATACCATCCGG = 0.735
CCGACAGGGGCATAAGGTTACCATAAGCCAGCCC = 1.11
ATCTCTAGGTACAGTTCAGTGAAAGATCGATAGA = 0.382
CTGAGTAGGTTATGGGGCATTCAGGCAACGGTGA = 4.62

Lab note: next sequence to report on.
Q) State its PBM binding z-score on PPARg:RXRa (NR concentration 180 nM, RXRa partner concentration 90 nM): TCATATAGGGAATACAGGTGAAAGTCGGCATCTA
A) 1.16

Data origin: the supplement of paper PMC6555819
